Exercise: state measured Percent neutralization of infection, dilution 54 for each of the binders provided.
# System Under Test: SARS-CoV-2 Spike (S) protein, strain BetaCoV/Wuhan-Hu-1/2019, full length (SARS-CoV-2 Wuhan-Hu-1, UniProt P0DTC2 14-1273)
# Test Method Notes: cell-based or functional assay
Answers are plain numbers, in %.

Below: 3 binders and their reported Percent neutralization of infection, dilution 54.
| Binder | Experimental Result |
| --- | --- |
| SARS-CoV-2 S306 mAb (B cell supernatant) (antibody, V domains shown) VH: QVQLVQSGAEVKKPGASVKVSCKASTYTFTSFGISWVRQAPGQGLEWMGWITTYSGDTNYAQKFQGRVTMTTDTSTNTAYMELRSLRSDDTAVYYCASDYFDSSGYYHSFDYWGQGTLVTVSS VL: EIVLTQSPDTLSLSPGERATLSCRASQSVSSYLAWYQQRPGQAPRLLIYDASKRATGIPARFSGSGSGTDFTLTISSLEPEDFAVYYCQQRSNWPPGCSFGQGTKVEIK | 6 |
| SARS-CoV-2 S308 mAb (B cell supernatant) (antibody, V domains shown) VH: QVQLVESGGGVVQPGRSLRLSCAASRFTFSSYGMHWVRQAPGKGLEWVAVIWHDGNNKHYGDSVKGRVTISRDNSKNTLYLQMTSLRAEDTAVYYCARAVTTFKGSGRARMRGMDVWGQGTTVTVSS VL: DIQLTQSPSFLSASVGDRVTITCRASQGINTYLAWYQQKPGKAPKLLIYAASTLQSGVPSRFSGSGSGTEFTLTISSLQPEDFATYYCQHLDTYPFTFGPGTKVDIK | 16 |
| SARS-CoV-2 S304 mAb (B cell supernatant) (antibody, V domains shown) VH: EVQLVESGGGLVQPGGSLRLSCAASGFTFSSYDMHWVRQTTGKGLEWVSTIGTAGDTYYPDSVKGRFTISREDAKNSLYLQMNSLRAGDTAVYYCARGDSSGYYYYFDYWGQGTLLTVSS VL: DIQMTQSPSSLSAAVGDRVTITCRASQSIGSYLNWYQQKPGKAPKLLIYAASSLQSGVPSRFSGSGSGTDFTLTISSLQPEDFAIYYCQQSYVSPTYTFGPGTKVDIK | 7 |

// below: Percent neutralization of infection, dilution 54 requested for another binder
// returns reported Percent neutralization of infection, dilution 54 for input SARS-CoV-2 S303 mAb (B cell supernatant) (antibody, V domains shown) VH: EVQLVESGGGLVKPGGSLRLSCAASGFTFLTYSMNWVRQTPGKRLQWVSAISGSGGATYYADSVKGRFTISRDNSKNTLYLQMNTVTADDTAIYFCARERDDIFPMGLNAFDIWGQGAMVIVSS VL: DIQMTQSPSTLSASVGDRVTITCRASQSISNWLAWYQQKPGKAPKLLIYKASSLESGVPSRFSGSGSGTEFTLTISSLQPDDSATYYCQQYDTYSWTFGQGTKVEIK
12

// data source = patent US20230331821A1
